Target of assay: Cannabinoid receptor 2 (Homo sapiens, UniProt P34972)
Sequence (P34972 whole entry): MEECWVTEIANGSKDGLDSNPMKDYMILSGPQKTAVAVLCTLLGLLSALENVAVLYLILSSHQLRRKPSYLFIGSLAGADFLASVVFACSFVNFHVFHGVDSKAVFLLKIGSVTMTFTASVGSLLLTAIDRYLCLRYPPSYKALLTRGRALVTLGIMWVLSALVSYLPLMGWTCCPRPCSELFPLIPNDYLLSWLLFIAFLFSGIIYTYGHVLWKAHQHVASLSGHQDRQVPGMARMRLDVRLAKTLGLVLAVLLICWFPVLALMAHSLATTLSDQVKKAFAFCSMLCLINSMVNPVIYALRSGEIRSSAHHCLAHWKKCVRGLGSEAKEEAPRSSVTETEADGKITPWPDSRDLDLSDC
Method: Displacement of [3H]CP-55940 from human recombinant cannabinoid CB2 receptor expressed in HEK293 cells
Quantity kind: Ki

**Query** Given the entry COc1cccc2oc(=O)c(Cc3ccccc3)cc12 , report its measured Ki.
**Result** > 10 µM

**Query** Given the entry COc1ccc2oc(=O)c(Cc3ccccc3)cc2c1 , report its measured Ki.
**Result** > 10 µM

**Query** Given the entry O=c1oc2ccc(I)cc2cc1Cc1ccccc1 , report its measured Ki.
**Result** ≥ 10 µM

**Query** Given the entry Cc1cc2cc(Cl)cc(Br)c2oc1=O , report its measured Ki.
**Result** ≥ 10 µM

**Query** Given the entry CCOC(=O)/C(=C/C=C/c1ccccc1)C(=O)Oc1c(C2SCCS2)ccc2c1C=CC(C)(C)O2 , report its measured Ki.
**Result** > 10 µM

**Query** Given the entry Cc1cc2c(ccc3ccccc32)oc1=O , report its measured Ki.
**Result** ≥ 10 µM

**Query** Given the entry COc1ccc2cc(C)c(=O)oc2c1 , report its measured Ki.
**Result** ≥ 10 µM

**Query** Given the entry CC1(C)Oc2c(cccc2-c2ccccc2)C=C1C=O , report its measured Ki.
**Result** > 10 µM
